PROTOCOL SUMMARY: Neurotoxicity in ip dosed albino mouse assessed as motor impairment measured at 4 hrs by rotarod test
Type: toxicity, organism-based
MEASUREMENT CONDITIONS: in vivo
ENDPOINT NAME: MED=>50

Solved entries:
O=C1NC(=O)C(c2ccccc2)(c2ccccc2)N1	100 mg/kg
COc1ccc(C2SCC(=O)N2NC(=O)Nc2nc3ccc(Cl)cc3s2)cc1 (stereo not given)	Non-Toxic
O=C(Nc1nc2ccc(Cl)cc2s1)NN1C(=O)CSC1c1ccc([N+](=O)[O-])cc1 (stereo not given)	Non-Toxic
O=C(Nc1nc2ccc(Cl)cc2s1)NN1C(=O)CSC1c1ccccc1Cl (stereo not given)	Non-Toxic

Which MED=>50 is listed for CCC1(C)CC(=O)NC1=O (stereo not given) [ETHOSUXIMIDE] ?
Non-Toxic

And the next one, O=C(Nc1nc2ccc(Cl)cc2s1)NN1C(=O)C(Cl)C1c1ccc([N+](=O)[O-])cc1 (stereo not given) ?
Non-Toxic

Next entry: NC(=O)N1c2ccccc2C=Cc2ccccc21 [CARBAMAZEPINE]
300 mg/kg

And CC(=O)Oc1ccccc1C1SCC(=O)N1NC(=O)Nc1nc2ccc(Cl)cc2s1 (stereo not given) ?
Non-Toxic

Next compound up: O=C(Nc1nc2ccc(Cl)cc2s1)NN1C(=O)CSC1c1ccc(Cl)cc1Cl (stereo not given)
Non-Toxic

Repeat for the following compound: COc1ccc(C2C(Cl)C(=O)N2NC(=O)Nc2nc3ccc(Cl)cc3s2)cc1 (stereo not given)
Non-Toxic

* * *

PROTOCOL SUMMARY: Neurotoxicity in ip dosed albino mouse assessed as motor impairment measured at 4 hrs by rotarod test
Type: toxicity, organism-based
MEASUREMENT CONDITIONS: in vivo
ENDPOINT NAME: MED=>50

Solved entries:
O=C(Nc1nc2ccc(Cl)cc2s1)NN1C(=O)C(Cl)C1c1ccc(Cl)cc1Cl (stereo not drawn)	Non-Toxic
CCCC(CCC)C(=O)O	Non-Toxic
CC(=O)Oc1ccccc1C1C(Cl)C(=O)N1NC(=O)Nc1nc2ccc(Cl)cc2s1 (stereo not drawn)	Non-Toxic
O=C(Nc1nc2ccc(Cl)cc2s1)NN1C(=O)C(Cl)C1c1ccccc1Cl (stereo not drawn)	Non-Toxic
O=C(Nc1nc2ccc(Cl)cc2s1)NN1C(=O)CSC1c1ccccc1 (stereo not drawn)	Non-Toxic

Find the recorded MED=>50 belonging to Cc1ccccc1C1SCC(=O)N1NC(=O)Nc1nc2ccc(Cl)cc2s1 (stereo not drawn) and report it.
300 mg/kg

Entry Cc1ccccc1C1C(Cl)C(=O)N1NC(=O)Nc1nc2ccc(Cl)cc2s1 (stereo not drawn) please
300 mg/kg

# repeat for O=C(Nc1nc2ccc(Cl)cc2s1)NN1C(=O)C(Cl)C1c1ccccc1 (stereo not drawn)
Non-Toxic

* * *

PROTOCOL SUMMARY: Neurotoxicity in ip dosed albino mouse assessed as motor impairment measured at 0.5 hrs by rotarod test
Type: toxicity, organism-based
MEASUREMENT CONDITIONS: in vivo
ENDPOINT NAME: MED=>50

Illustrative cases are given below, each with its answer.
O=C(Nc1nc2ccc(Cl)cc2s1)NN1C(=O)C(Cl)C1c1ccc(Cl)cc1Cl (stereo not given)	Non-Toxic
Cc1ccccc1C1SCC(=O)N1NC(=O)Nc1nc2ccc(Cl)cc2s1 (stereo not given)	300 mg/kg
O=C(Nc1nc2ccc(Cl)cc2s1)NN1C(=O)CSC1c1ccccc1Cl (stereo not given)	Non-Toxic
O=C(Nc1nc2ccc(Cl)cc2s1)NN1C(=O)C(Cl)C1c1ccccc1Cl (stereo not given)	Non-Toxic
COc1ccc(C2SCC(=O)N2NC(=O)Nc2nc3ccc(Cl)cc3s2)cc1 (stereo not given)	Non-Toxic

Data request, read-out MED=>50, for NC(=O)N1c2ccccc2C=Cc2ccccc21 [CARBAMAZEPINE]
100 mg/kg

Same question, CC(=O)Oc1ccccc1C1C(Cl)C(=O)N1NC(=O)Nc1nc2ccc(Cl)cc2s1 (stereo not given) this time
Non-Toxic

Entry Cc1ccccc1C1C(Cl)C(=O)N1NC(=O)Nc1nc2ccc(Cl)cc2s1 (stereo not given) please
300 mg/kg

Also, CC(=O)Oc1ccccc1C1SCC(=O)N1NC(=O)Nc1nc2ccc(Cl)cc2s1 (stereo not given) please.
Non-Toxic

Next entry: O=C(Nc1nc2ccc(Cl)cc2s1)NN1C(=O)C(Cl)C1c1ccccc1 (stereo not given)
Non-Toxic
